This collection of values is drawn from ChEMBL document CHEMBL6096655.

# assayTarget: Casein kinase II subunit alpha (Homo sapiens)
# Sequence (P68400 whole entry): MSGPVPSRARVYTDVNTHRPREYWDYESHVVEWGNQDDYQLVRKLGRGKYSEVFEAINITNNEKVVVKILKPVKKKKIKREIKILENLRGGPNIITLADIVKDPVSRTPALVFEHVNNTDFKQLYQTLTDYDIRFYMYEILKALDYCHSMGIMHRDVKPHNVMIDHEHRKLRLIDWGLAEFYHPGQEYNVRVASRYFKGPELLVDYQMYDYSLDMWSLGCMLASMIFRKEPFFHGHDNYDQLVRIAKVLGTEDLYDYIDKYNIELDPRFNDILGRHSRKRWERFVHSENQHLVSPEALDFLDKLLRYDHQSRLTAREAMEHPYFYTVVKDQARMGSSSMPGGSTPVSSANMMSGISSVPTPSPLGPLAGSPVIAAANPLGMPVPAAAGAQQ
# testName: Inhibition of CK2alpha (unknown origin)
readoutLabel: IC50

compoundStructure | readoutLabel | resultValue
Cc1nc2c(Br)c(Br)c(Br)c(Br)c2n1CCCN | IC50 | 0.15 µM

###

# Tested on: 786-0
# testName: Antiproliferative activity against human 786-0 cells assessed as inhibition of cell growth measured after 3 to 4 days by MTT assay
# Assay type: functional
# studyConditions: time 3-4 day

molecule | GI50
COc1cccc(N2CCN(c3ncnc4sc5c(c34)CCNC5)CC2)c1 | 29.5 µM
Cc1ccccc1N1CCN(c2ncnc3sc4c(c23)CCNC4)CC1 | 30 µM
CCC(=O)Nc1cc(Nc2cc(NC3CC3)n3ncc(C#N)c3n2)ccc1C | 5.7 µM
Fc1cccc(N2CCN(c3ncnc4sc5c(c34)CCNC5)CC2)c1 | 15 µM
Clc1ccc(N2CCN(c3ncnc4sc5c(c34)CCNC5)CC2)cc1.O=C(O)C(F)(F)F | 7.3 µM
O=C(O)c1ccc2c(c1)nc(Nc1cccc(Cl)c1)c1ccncc12 [SILMITASERTIB] | 5.5 µM
Cc1ccc(N2CCN(c3ncnc4sc5c(c34)CCNC5)CC2)cc1 | 14.7 µM
Brc1ccccc1/C=N/Nc1ncnc2sc3c(c12)CCNC3 | 6.6 µM

###

The entries below come with measured GI50 values attached.
# testName: Antiproliferative activity against HEK293 cells assessed as inhibition of cell growth measured after 3 to 4 days by MTT assay
# Type: toxicity, cell-based
# studyConditions: human, time 3-4 day

compoundStructure | GI50
Clc1ccc(N2CCN(c3ncnc4sc5c(c34)CCNC5)CC2)cc1.O=C(O)C(F)(F)F | 30 µM
CCC(=O)Nc1cc(Nc2cc(NC3CC3)n3ncc(C#N)c3n2)ccc1C | > 30 µM
O=C(O)c1ccc2c(c1)nc(Nc1cccc(Cl)c1)c1ccncc12 | > 30 µM
